test: yeast display, Sf9 membrane polyspecificity reagent, FACS + sequencing; frameworks hold sequencing errors
measuredQuantity: polyreactivity (PSR sort gate)

- primarySequence: "QFQLVESGGGIVQAGGSLRLSCAASGRTIYQYAMGWYRESPANERELVAAISRSGTSTYYADSVKGRFTISRDNAKNTVYLQMNSLKPEDTAVYFCAARYVSKYNYPSPEMYYWGQGTKVTVSS"
  measuredQuantity: "polyreactivity (PSR sort gate)"
  valueMeasured: "high polyreactivity"
- primarySequence: "QVQHVESGGGLVQAGGSLRLSCAASGLTFELYAMGWYRQAPGKERELVAAITWSGGRTYDADSVKGRFTISRDNAKNTVYLQMNSLKPEDTAVYYCAADVYPGYVGSQEYDYWGQGTQVTVSS"
  measuredQuantity: "polyreactivity (PSR sort gate)"
  valueMeasured: "low polyreactivity"
- primarySequence: "QVQLVESGGGLVPAGGSLRLSCAASGFTFNSNAMGWYRQAPGKERELVAAISGSGGRTYYADSVKGRFTISRDNAKNTVYLQRNSLKPEDTAVYYCAADYPVRSYDYWGQGTQVTVSS"
  measuredQuantity: "polyreactivity (PSR sort gate)"
  valueMeasured: "low polyreactivity"
- primarySequence: "QVQLVESGGGLVQAGGSLRLSCAASGSTLRGYALGWYRQAPGKERELVAAISKNGGSTYYADSVKGRFTISRDNAKNTVYLQMNSLNPEDTAVYYCAAYKAVPHYYYWGQGTQVTVSS"
  measuredQuantity: "polyreactivity (PSR sort gate)"
  valueMeasured: "high polyreactivity"
- primarySequence: "QVQLVESGGGLVQAGCSLRLSCAASGLIFYTYAMGWYRQAPGKEREFVAAISRRGGSTYYADSVKGRFTISRDNAKNTVYLQMNSLKPEYTAVYYCNARYTYPRPYEEYYYWGQGTQVTVSS"
  measuredQuantity: "polyreactivity (PSR sort gate)"
  valueMeasured: "high polyreactivity"
- primarySequence: "QVQLVESGGGLVQAGGSLRLSCAASGSTFSVYTMGWYRQAPGKERELVAAISRSGGRTYYADSVKGRFTISRDNAKNTVYLQMNSVKPDDTAVYYCATGYYGTYDYWGQGTQVTVSS"
  measuredQuantity: "polyreactivity (PSR sort gate)"
  valueMeasured: "high polyreactivity"
- primarySequence: "QVQLVESGGGLVQAGGSLRLSCAASGITFPYYAMGWYRQAPGKERELVAAITTGGGSTYYADSVKGRFTISRDNAKNTVYLQMNSLKPEDTAVYYCAAANLRARTGPRRGYEYWGQGTQVTVSS"
  measuredQuantity: "polyreactivity (PSR sort gate)"
  valueMeasured: "high polyreactivity"
- primarySequence: "QVQLVASGGGLVQAGGSLRLSCAASGSIFSYYTMGWYSQAPGKERELVASISRSGGRTNYADSVKGRFTISRDNAKNTVYLQMNSLKPEDTAVYYCKTERWGPYPHKRYNYWGQGTQVTVSS"
  measuredQuantity: "polyreactivity (PSR sort gate)"
  valueMeasured: "high polyreactivity"
- primarySequence: "QVQHVESGGGLVQAGGSLRLSCAASGITFYRYAMGWYIQAPGKERELVAAINASGGSTYYADSVKGRFTISRDKAKNTVYLQMNSLKPEDTAVYYCAADRVSWVKHYYWGQGTKVTVSS"
  measuredQuantity: "polyreactivity (PSR sort gate)"
  valueMeasured: "high polyreactivity"
- primarySequence: "QVQLVESGGGLVQAGGSLRLSCAASGSILRYYAMGWYRQAPGKERELVAAITGRGGRTYYADSVKGRFTISRDNAKYTVYLQMNSLKPEDTAVYYCAADGDNPYLHEEDYWGQGTQVTVSS"
  measuredQuantity: "polyreactivity (PSR sort gate)"
  valueMeasured: "high polyreactivity"
- primarySequence: "QVQLVESGGGLVQAGGSLRLSCAASGRTFKYYAMGWYRQAPGKERELVAAISYSGGSTYYADSVKGRFTISRDNAKNTVYLQMNSLKPEDTAVYYCAARFTRYYSGGDQKYDYWGQVTQVTVSS"
  measuredQuantity: "polyreactivity (PSR sort gate)"
  valueMeasured: "high polyreactivity"

###

assay: yeast display, Sf9 membrane polyspecificity reagent, FACS + sequencing; frameworks hold sequencing errors
measuredQuantity: polyreactivity (PSR sort gate)

- primarySequence: "QVQLVESGGGLVQAGGSLRLSCAASGSTLYWYAMGWYRQAPGKERELVARITVSGGSTSYADSVKGRFTISRYNAKNTVYLQMNSLKPEDTAVYYCAARRYWTGYYYWGQGTQVTVSS"
  measuredQuantity: "polyreactivity (PSR sort gate)"
  valueMeasured: "high polyreactivity"
- primarySequence: "QVQLVESGGGLVQAGGSLRLSCAASGRIFAWNAMGWYRQAPGTERELVARIRVSGGRTYYADSVKGRFTISRDNAKNTVYLQMNSLKPEDTAVDYCNAYLRSGSMDYWGQGTQVTVSS"
  measuredQuantity: "polyreactivity (PSR sort gate)"
  valueMeasured: "high polyreactivity"
- primarySequence: "QVQLVESGGGLVQAGGSLRLICAASGRIFALYAMGWYRQAPGKEREFVATITRGASTNYADSVKGRFTISRDNAKNTVYLQMNSLKPVDTAVYYCAAAGYKAAGRVVASYYWGQGTQVTVSS"
  measuredQuantity: "polyreactivity (PSR sort gate)"
  valueMeasured: "high polyreactivity"
- primarySequence: "QVQVVESGGGLVQAGGRLRLSFAASGFTFESYAMGWYRQAPGKERELVPAISDGGGDTYYADSVKGRFTISRDNAKNTVYLQMNSLKPEDTAVYYCAAEWDGNWSRCAGGYDYWGQGTQVTVSS"
  measuredQuantity: "polyreactivity (PSR sort gate)"
  valueMeasured: "low polyreactivity"
- primarySequence: "QVQLVESGGGLVQAGGSLRLSCAASGFTFTVYAMGWYRQAPGQERELVATISRSAGRTYYADSVKGRFTISRDNAKNTVYLQMNSLKPEDTPVYYCNAAYGNGYTGGFDNWGQGTQVTVSS"
  measuredQuantity: "polyreactivity (PSR sort gate)"
  valueMeasured: "high polyreactivity"
- primarySequence: "QVQLVESVGGLVQAGGSLRLSCAASGNTLVYYDMGWYRQAPGKERELVAAISWSTGSTYYADSVKGRFTISRDNAKNTVYLQMNSLKPEDTAVYYCAAEPELDEYEHDYWGQGTQVTVSS"
  measuredQuantity: "polyreactivity (PSR sort gate)"
  valueMeasured: "low polyreactivity"
- primarySequence: "QVQLVESGGGLVQAGGSLRLSCAASGRTFERYAMGWYRQAPGKERELVAAITSGGSTYYADSVKGRFTISRDNAKNTVYLQMNSLKPEDTAVYYCATSNWWGYDYWGQGTQVTVSS"
  measuredQuantity: "polyreactivity (PSR sort gate)"
  valueMeasured: "high polyreactivity"
- primarySequence: "QVQLGESGGGLVQAGGSLRLSCAASGRTFIYDAMGWYRQAPGKERELVAGISRNGGRTYYADSVKGRFTISRDNAKNTVYLKMNSLKPEDTAVYYCIARTYSYRGYNYWGQGTQVTVSS"
  measuredQuantity: "polyreactivity (PSR sort gate)"
  valueMeasured: "high polyreactivity"
- primarySequence: "QVQLVESGGGLVQAGGSLRLSCAASGSTFSYNARGWYRQAPGKERELVAAITSGSSTNYADSVKGRFTISRDNAKNTVYLQMNSLKPEDTAVYYCAADGYQDKYYWLETWVGYWGQGTQVTVSS"
  measuredQuantity: "polyreactivity (PSR sort gate)"
  valueMeasured: "low polyreactivity"
- primarySequence: "QVQLVESGGGLVQAGGSLRLSCAAYGSIFWYYAMGWYRQAHGKERELVAAISASGSSTYYADSVKGRLTISRDNAKNPVYLQMNSLNPEDTAVYYCAGTYILYNDWLYHYFPEEYDSWGQGTQVTVSS"
  measuredQuantity: "polyreactivity (PSR sort gate)"
  valueMeasured: "low polyreactivity"
- primarySequence: "QVQLVESGGGLVQAGGSLRLSCAASGSTFAIYAMGWYRPAPGKERELVASISGGSTNYADSVKGRFTISRDNAKNTVDLQMNSLKPEDTADYYCAARGALHHWYRYDYWGQGTQVTVSS"
  measuredQuantity: "polyreactivity (PSR sort gate)"
  valueMeasured: "low polyreactivity"

###

assay: yeast display, Sf9 membrane polyspecificity reagent, FACS + sequencing; frameworks hold sequencing errors
measuredQuantity: polyreactivity (PSR sort gate)

- primarySequence: "QVQLVESGGGLVQAGGSLRLSCAASGRTFFEYAMGWYRQAPGKEMDLVAIITNGATTNYADSVKGRFTISRDNAKNTVYLQMNSLKPEDTAVYYCAVAKWQPRRRKYYYWGQGTQVTVSS"
  measuredQuantity: "polyreactivity (PSR sort gate)"
  valueMeasured: "high polyreactivity"
- primarySequence: "QVQLVESGGGLFQAGGSLRLSCAASGLIIAYYAMRWYRQAPGKERELVAAISSVGSTYYADSVNGRFTISRDNAKNTVYLQMNSLKPEDTAVYYCAAAPRGGMYYWGQGTQVTVSS"
  measuredQuantity: "polyreactivity (PSR sort gate)"
  valueMeasured: "high polyreactivity"
- primarySequence: "QVQHVESGGGLVQAGGSLRLRCAASGITSRYNDMGWSRQAPGKERELVATITWRGVSTYYADSVKGRFTISRDNAKNTVYVQMNSLKPEDTAVYYCAARRPGYYPYKGFDYWGQGTQVTVSS"
  measuredQuantity: "polyreactivity (PSR sort gate)"
  valueMeasured: "high polyreactivity"
